Reference for the values: patent US9834542B2

# System under test: LXRβ (Homo sapiens)
# Construct: Co-transfection expression plasmids, comprising full-length LXRα (pCMX-h LXRα[…] or LXRβ (pCMX-hLXRβ))
# Sequence (P55055 1-460): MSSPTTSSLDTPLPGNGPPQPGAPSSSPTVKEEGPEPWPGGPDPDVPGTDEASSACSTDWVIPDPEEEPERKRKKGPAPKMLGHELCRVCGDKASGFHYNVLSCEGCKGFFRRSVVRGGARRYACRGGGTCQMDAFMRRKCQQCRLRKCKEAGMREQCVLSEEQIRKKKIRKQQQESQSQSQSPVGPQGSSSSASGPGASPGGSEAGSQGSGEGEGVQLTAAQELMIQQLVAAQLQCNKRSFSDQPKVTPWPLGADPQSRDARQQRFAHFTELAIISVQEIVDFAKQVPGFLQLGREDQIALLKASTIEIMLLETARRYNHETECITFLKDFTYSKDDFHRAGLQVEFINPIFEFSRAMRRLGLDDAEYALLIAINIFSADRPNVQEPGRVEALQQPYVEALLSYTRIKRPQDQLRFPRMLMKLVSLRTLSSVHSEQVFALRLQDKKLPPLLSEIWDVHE
# Sequence (P19793 1-462 partner): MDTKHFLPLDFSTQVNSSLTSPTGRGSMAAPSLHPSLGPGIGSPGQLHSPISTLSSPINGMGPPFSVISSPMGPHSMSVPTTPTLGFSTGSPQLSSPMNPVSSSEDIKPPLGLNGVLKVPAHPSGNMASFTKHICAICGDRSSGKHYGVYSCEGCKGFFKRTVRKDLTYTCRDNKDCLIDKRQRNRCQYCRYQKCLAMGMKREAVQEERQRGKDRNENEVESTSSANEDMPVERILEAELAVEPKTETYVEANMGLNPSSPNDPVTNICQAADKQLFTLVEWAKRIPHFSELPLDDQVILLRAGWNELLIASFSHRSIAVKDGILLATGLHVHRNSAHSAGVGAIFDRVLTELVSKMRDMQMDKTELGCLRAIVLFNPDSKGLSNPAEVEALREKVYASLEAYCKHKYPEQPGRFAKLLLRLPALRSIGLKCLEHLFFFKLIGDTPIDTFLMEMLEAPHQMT
# Test: Co-transfection assay (LXRE luciferase reporter), LXRβ
# Condition: CV-1 cells transfected with pCMX-hLXRβ and LXREx1-Tk-Luciferase; 20 hours incubation
Reported property: EC50 (nM)

P. Cc1nc(C(F)(F)F)cn1-c1ccc(-c2cc(F)c(CO)c(S(C)(=O)=O)c2)cc1-n1nncc1C1(c2ccc(Cl)cc2)CC1 [Example 106]
Q. Cc1nc(C(=O)NC(C)(C)C)cn1-c1ccc(-c2cccc(S(C)(=O)=O)c2)cc1-n1nncc1-c1ccc(OC(F)(F)F)cc1 [Example 152]
Problem: Between P and Q , which one has the lower reported EC50 value? The response must carry the label of the picked entry.
Solution: P
(P: 281 nM, Q: 1230 nM)

A. Cc1nc(C(F)(F)F)cn1-c1cc(F)c(-c2cccc(S(C)(=O)=O)c2)cc1-n1nncc1-c1ccc(Cl)cc1 [Example 100]
B. CNS(=O)(=O)c1cccc(-c2cc(F)c(-n3cc(C(F)(F)F)nc3C)c(-n3nncc3-c3ccc(OC(F)(F)F)cc3)c2)c1 [Example 205]
Problem: Of the two listed items, A and B , which carries the larger EC50 figure? The response must carry the label of the picked entry.
Solution: A
(A: 1110 nM, B: 111 nM)

I. Cc1nc(-c2cc(-c3cccc(S(C)(=O)=O)c3)ccc2-n2cc(C(C)O)nc2C)c(-c2ccc3c(c2)OC(F)(F)O3)o1 (single isomer, unassigned) [Example 372]
II. Cc1nc(-c2cc(-c3cc(F)c(CO)c(S(C)(=O)=O)c3)ccc2-n2cc(C(F)(F)F)nc2C)c(-c2ccc(OC(F)F)c(OCC3CC3)c2)o1 [Example 383]
III. COc1cc(OC(F)(F)F)ccc1-c1nc(C)oc1-c1cc(-c2cccc(S(C)(=O)=O)c2)ccc1-n1cc(C(F)(F)F)nc1C [Example 637]
IV. Cc1nc(-c2ccccc2OC(F)(F)F)c(-c2cc(-c3cccc(S(C)(=O)=O)c3)ccc2-n2cc(C(F)(F)F)nc2C)o1 [Example 631]
Problem: Order the 4 compounds from highest to lowest EC50. Answer by listing the labels in the order asked for.
Solution: I, III, IV, II

1. Cc1nc(-c2cc(-c3cccc(C(=O)N(C)C)c3)ccc2-n2cc(C(F)(F)F)nc2C)c(-c2ccc3c(c2)OC(F)(F)O3)o1 [Example 418]
2. CCc1nc(-c2cc(-c3cccc(S(C)(=O)=O)c3)ccc2-n2cc(C(F)(F)F)nc2C)c(-c2ccc(OC(F)(F)F)cc2)o1 [Example 555]
Problem: Of the two listed items, 1 and 2 , which carries the larger EC50 figure? The response must carry the label of the picked entry.
Solution: 1
